- targetOrTestSystem: Human ACC2 (Homo sapiens)
- Construct: made in house; host or cells: SF-9 insect cells (baculovirus, pFAST-BacHTa)
- Sequence (O00763 117-2458 limits assumed): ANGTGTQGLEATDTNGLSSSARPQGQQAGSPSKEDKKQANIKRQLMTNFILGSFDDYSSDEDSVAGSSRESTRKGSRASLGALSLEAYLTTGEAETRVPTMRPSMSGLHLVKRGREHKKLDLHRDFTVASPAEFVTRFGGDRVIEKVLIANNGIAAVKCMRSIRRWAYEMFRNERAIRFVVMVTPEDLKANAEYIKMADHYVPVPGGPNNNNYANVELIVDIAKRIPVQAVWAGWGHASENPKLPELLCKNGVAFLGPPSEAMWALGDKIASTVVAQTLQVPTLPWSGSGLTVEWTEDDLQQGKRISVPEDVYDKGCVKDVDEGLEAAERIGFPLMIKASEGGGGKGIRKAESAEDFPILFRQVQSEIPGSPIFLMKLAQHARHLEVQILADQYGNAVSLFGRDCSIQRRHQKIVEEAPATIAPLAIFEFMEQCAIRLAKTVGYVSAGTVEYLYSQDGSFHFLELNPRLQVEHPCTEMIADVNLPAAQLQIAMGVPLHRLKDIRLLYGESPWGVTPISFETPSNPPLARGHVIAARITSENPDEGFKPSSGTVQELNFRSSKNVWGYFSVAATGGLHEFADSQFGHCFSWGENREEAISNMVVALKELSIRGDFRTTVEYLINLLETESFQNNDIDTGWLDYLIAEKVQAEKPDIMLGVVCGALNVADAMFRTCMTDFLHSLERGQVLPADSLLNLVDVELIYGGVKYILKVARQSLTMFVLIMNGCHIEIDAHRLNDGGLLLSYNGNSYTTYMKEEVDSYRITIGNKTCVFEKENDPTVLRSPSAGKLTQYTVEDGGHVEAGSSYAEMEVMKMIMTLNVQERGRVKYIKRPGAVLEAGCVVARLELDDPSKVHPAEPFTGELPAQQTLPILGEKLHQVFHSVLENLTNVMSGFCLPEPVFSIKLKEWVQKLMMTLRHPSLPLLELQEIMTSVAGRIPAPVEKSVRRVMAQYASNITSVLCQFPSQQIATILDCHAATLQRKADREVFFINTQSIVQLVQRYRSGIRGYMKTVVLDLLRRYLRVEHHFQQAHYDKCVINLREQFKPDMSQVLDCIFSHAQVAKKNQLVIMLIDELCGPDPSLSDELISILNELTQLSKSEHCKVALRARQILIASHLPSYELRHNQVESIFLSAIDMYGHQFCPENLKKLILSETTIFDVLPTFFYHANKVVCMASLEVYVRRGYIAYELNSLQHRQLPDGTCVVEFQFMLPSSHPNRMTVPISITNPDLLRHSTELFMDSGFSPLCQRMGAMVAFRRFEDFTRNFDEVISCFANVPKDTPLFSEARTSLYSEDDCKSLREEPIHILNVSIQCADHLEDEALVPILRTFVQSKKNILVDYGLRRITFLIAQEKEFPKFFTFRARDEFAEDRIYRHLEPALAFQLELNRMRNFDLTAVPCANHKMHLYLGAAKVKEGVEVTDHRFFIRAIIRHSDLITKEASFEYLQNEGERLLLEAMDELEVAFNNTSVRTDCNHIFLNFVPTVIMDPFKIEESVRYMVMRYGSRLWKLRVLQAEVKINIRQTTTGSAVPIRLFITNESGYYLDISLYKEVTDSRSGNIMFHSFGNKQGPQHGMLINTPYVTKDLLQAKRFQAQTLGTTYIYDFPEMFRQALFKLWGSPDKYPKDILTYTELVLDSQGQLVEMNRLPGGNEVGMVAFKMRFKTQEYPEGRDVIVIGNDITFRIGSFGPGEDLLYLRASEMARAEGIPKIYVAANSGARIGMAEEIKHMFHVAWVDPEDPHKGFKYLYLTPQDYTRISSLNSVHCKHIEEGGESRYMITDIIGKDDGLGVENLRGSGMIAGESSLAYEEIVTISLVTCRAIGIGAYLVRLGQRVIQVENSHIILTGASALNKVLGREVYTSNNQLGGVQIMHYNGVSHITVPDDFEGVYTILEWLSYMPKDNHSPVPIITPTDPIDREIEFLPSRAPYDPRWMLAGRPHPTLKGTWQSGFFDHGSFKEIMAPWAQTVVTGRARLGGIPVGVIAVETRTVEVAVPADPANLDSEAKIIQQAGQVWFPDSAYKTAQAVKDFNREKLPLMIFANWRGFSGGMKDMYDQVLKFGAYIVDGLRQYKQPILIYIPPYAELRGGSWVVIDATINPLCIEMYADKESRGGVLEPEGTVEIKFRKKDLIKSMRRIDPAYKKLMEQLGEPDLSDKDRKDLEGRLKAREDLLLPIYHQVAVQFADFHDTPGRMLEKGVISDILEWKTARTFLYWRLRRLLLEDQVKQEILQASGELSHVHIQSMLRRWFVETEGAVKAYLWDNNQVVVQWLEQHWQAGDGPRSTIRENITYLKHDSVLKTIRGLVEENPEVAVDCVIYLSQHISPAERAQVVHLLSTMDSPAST
- testDescription: in vitro enzymatic ACC activity assay (malachite green, absorbance at 620 nm), ACC2
- Type: biochemical
- conditionLabel: recombinant His-tagged human ACC2, 6.4 μg/mL; same method as ACC1
Listed next: entries and their corresponding IC50.

Reference set, count: 5
INSERT INTO measurements (compound, observedresult) VALUES
  ('CCNC(=O)Nc1sc2ccccc2c1C(=O)N1CCC(N)(C#N)CC1 [Compound 6]', '> 10 µM'),
  ('CCCCN1C=NC2(CCN(C(=O)c3c(NC(=O)NCC)sc4ccccc34)CC2)C1=O [Compound 20]', '1 to 10 µM'),
  ('CCNC(=O)Nc1sc2ccccc2c1C(=O)N1CCC2(CC1)N=C(CSC(C)C)NC2=O [Compound 22]', '< 1 µM'),
  ('CCNC(=O)Nc1sc2ccccc2c1C(=O)N1CCC2(CC1)N=C(COc1ccccc1C#N)NC2=O [Compound 26]', '< 1 µM'),
  ('CCNC(=O)Nc1sc2ccccc2c1C(=O)N1CCC2(CC1)N=C(COc1ccccc1OC)NC2=O [Compound 25]', '< 1 µM');

Query block: What does the record list as IC50 for CCNC(=O)Nc1sc2ccccc2c1C(=O)N1CCC2(CC1)N=C(C[S+]([O-])C(C)C)NC2=O (centres unmarked) [Compound 23] ?
Result block: < 1 µM

Query block: What do we get for CCNC(=O)Nc1sc2ccccc2c1C(=O)N1CCC2(CC1)N=C(CS(C)(=O)=O)NC2=O [Compound 4] ?
Result block: 1 to 10 µM

Query block: What do we get for CCNC(=O)Nc1sc2ccccc2c1C(=O)N1CCC2(CC1)N=C(CSc1ccc(F)cc1)NC2=O [Compound 21] ?
Result block: 1 to 10 µM
